Entry source: patent US20230256092A1

molecular target: T1, human CCR8 (Homo sapiens, UniProt P51685); experiment: Neutralizing activity: inhibition of Ca2+ influx by 200 nM hCCL1 in human CCR8 expressing 293 cells (FLIPR), Test Example 6; type: cell-based; details: Table 9; WT IC50/mutant IC50; humanized 10A11 heavy chain CDR mutants, IGKV4-1/IGHV3-73
T1 construct: expressed in transfected cells; host or cells: 293 cells
OBSERVATION TYPE: IC50 ratio

Please review the entries below; each comes with its answer.
h10A11 (IGKV4-1/IGHV3-73 Y59F): humanized 10A11 heavy chain CDR point mutant (antibody, V domains shown) VL: DIVMTQSPDSLAVSLGERATINCRSSKSLLHSNGNTYLYWYQQKPGQPPKLLIYRMSNLASGVPDRFSGSGSGTDFTLTISSLQAEDVAVYYCMQHLEYPLTFGQGTKLEIKRT VH: EVQLVESGGGLVQPGGSLKLSCAASGFAFNTYALYWVRQASGKGLEWVGRIRSKSNNYATYFADSVKDRFTISRDDSKNTAYLQMNSLKTEDTAVYYCTRARFYYSDYGYAMDYWGQGTLVTVSS | 0.03
h10A11 (IGKV4-1/IGHV3-73 M100fL): humanized 10A11 heavy chain CDR point mutant (antibody, V domains shown) VL: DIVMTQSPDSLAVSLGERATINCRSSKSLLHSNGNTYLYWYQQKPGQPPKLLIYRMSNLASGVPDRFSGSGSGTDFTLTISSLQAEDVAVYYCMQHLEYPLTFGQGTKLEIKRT VH: EVQLVESGGGLVQPGGSLKLSCAASGFAFNTYALYWVRQASGKGLEWVGRIRSKSNNYATYYADSVKDRFTISRDDSKNTAYLQMNSLKTEDTAVYYCTRARFYYSDYGYALDYWGQGTLVTVSS | 0.72
h10A11 (IGKV4-1/IGHV3-73 A100eV): humanized 10A11 heavy chain CDR point mutant (antibody, V domains shown) VL: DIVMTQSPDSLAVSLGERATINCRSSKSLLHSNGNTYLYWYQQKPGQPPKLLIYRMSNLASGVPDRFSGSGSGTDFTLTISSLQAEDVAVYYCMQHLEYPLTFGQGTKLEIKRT VH: EVQLVESGGGLVQPGGSLKLSCAASGFAFNTYALYWVRQASGKGLEWVGRIRSKSNNYATYYADSVKDRFTISRDDSKNTAYLQMNSLKTEDTAVYYCTRARFYYSDYGYVMDYWGQGTLVTVSS | 0.49
h10A11 (IGKV4-1/IGHV3-73 D65E): humanized 10A11 heavy chain CDR point mutant (antibody, V domains shown) VL: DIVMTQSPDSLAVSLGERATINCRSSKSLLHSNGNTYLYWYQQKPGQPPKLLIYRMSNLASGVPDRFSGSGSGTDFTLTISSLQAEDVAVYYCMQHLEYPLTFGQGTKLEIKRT VH: EVQLVESGGGLVQPGGSLKLSCAASGFAFNTYALYWVRQASGKGLEWVGRIRSKSNNYATYYADSVKERFTISRDDSKNTAYLQMNSLKTEDTAVYYCTRARFYYSDYGYAMDYWGQGTLVTVSS | 1.30

h10A11 (IGKV4-1/IGHV3-73 K52bR): humanized 10A11 heavy chain CDR point mutant (antibody, V domains shown) VL: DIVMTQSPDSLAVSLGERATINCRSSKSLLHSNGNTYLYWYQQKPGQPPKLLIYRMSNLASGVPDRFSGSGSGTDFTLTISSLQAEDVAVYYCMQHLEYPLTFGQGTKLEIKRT VH: EVQLVESGGGLVQPGGSLKLSCAASGFAFNTYALYWVRQASGKGLEWVGRIRSRSNNYATYYADSVKDRFTISRDDSKNTAYLQMNSLKTEDTAVYYCTRARFYYSDYGYAMDYWGQGTLVTVSS yielded IC50 ratio of 0.47

h10A11 (IGKV4-1/IGHV3-73 Y98F): humanized 10A11 heavy chain CDR point mutant (antibody, V domains shown) VL: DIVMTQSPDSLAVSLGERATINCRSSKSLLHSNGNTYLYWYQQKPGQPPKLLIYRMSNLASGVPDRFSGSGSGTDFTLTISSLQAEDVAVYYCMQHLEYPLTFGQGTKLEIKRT VH: EVQLVESGGGLVQPGGSLKLSCAASGFAFNTYALYWVRQASGKGLEWVGRIRSKSNNYATYYADSVKDRFTISRDDSKNTAYLQMNSLKTEDTAVYYCTRARFFYSDYGYAMDYWGQGTLVTVSS yielded IC50 ratio of 0.07

h10A11 (IGKV4-1/IGHV3-73 A56V): humanized 10A11 heavy chain CDR point mutant (antibody, V domains shown) VL: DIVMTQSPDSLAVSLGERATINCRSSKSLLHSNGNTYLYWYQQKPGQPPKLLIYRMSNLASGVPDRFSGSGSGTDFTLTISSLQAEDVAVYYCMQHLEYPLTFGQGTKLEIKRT VH: EVQLVESGGGLVQPGGSLKLSCAASGFAFNTYALYWVRQASGKGLEWVGRIRSKSNNYVTYYADSVKDRFTISRDDSKNTAYLQMNSLKTEDTAVYYCTRARFYYSDYGYAMDYWGQGTLVTVSS yielded IC50 ratio of 0.55
